# experimentalSystem: Human GGT1 (hGGT) (Homo sapiens)
# Sequence (P19440 381-569 limits assumed): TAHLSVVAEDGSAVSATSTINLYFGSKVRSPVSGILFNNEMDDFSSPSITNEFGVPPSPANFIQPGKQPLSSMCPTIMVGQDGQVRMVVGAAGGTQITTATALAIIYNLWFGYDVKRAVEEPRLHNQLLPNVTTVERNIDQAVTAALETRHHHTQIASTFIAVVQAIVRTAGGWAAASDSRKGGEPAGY
# Sequence (P19440 27-380 limits assumed): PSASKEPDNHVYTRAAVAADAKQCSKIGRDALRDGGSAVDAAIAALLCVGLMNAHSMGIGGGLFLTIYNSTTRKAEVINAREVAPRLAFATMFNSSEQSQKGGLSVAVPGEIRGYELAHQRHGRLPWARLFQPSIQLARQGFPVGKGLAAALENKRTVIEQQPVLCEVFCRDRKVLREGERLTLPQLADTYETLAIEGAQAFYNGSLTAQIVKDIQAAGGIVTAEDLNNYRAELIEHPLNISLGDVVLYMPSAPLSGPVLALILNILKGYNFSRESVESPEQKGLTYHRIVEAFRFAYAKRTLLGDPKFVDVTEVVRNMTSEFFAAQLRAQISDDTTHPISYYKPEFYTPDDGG
# methodDescription: L-GpNA Transpeptidation Assay with GlyGly as acceptor
# Assay type: biochemical
# Design: lacking the transmembrane domain; made in house; host or cells: Pichia pastoris
# testSettings: Table 5; read-out: GlyGly with L-GpNA Kis
Below: a set of entries, each annotated with reported pKi.
Give only the number. pKi is defined as minus log10 of concentration in molar units.

Check out these entries, answers already filled in.
[[record]]
molecule = "Nc1ccc(S(=O)(=O)Nc2nnc(Cc3ccc(F)cc3)s2)cc1 [Compound 26]"
experimentalsystem = "Human GGT1 (hGGT) (Homo sapiens)"
metric = "pKi"
recordedresult = 4.33

[[record]]
molecule = "Cc1cccc(Cc2nnc(NS(=O)(=O)c3ccc(N)cc3)s2)c1 [Compound 24]"
experimentalsystem = "Human GGT1 (hGGT) (Homo sapiens)"
metric = "pKi"
recordedresult = 4.52

[[record]]
molecule = "CN(C)c1ccc(Cc2nnc(NS(=O)(=O)c3ccc(N)cc3)s2)cc1 [Compound 27]"
experimentalsystem = "Human GGT1 (hGGT) (Homo sapiens)"
metric = "pKi"
recordedresult = 4.62

[[record]]
molecule = "Cc1ccc(Cc2nnc(NS(=O)(=O)c3ccc(N)cc3)s2)cc1 [Compound 22]"
experimentalsystem = "Human GGT1 (hGGT) (Homo sapiens)"
metric = "pKi"
recordedresult = 5.22

[[record]]
molecule = "Nc1ccc(S(=O)(=O)Nc2nnc(Cc3ccc(Cl)c(Cl)c3)s2)cc1 [Compound 29]"
experimentalsystem = "Human GGT1 (hGGT) (Homo sapiens)"
metric = "pKi"
recordedresult = 5.30

[[record]]
molecule = "Nc1ccc(Cc2nnc(NS(=O)(=O)c3ccc(N)cc3)s2)cc1 [Compound 23]"
experimentalsystem = "Human GGT1 (hGGT) (Homo sapiens)"
metric = "pKi"
recordedresult = 4.82

[[record]]
molecule = "Nc1ccc(S(=O)(=O)Nc2nnc(Cc3ccccc3)s2)cc1 [Compound 25]"
experimentalsystem = "Human GGT1 (hGGT) (Homo sapiens)"
metric = "pKi"
recordedresult = 4.38


Moving on to the next molecule.
Lookup: If you can, please state the reported pKi value of Nc1ccc(S(=O)(=O)Nc2nnc(Cc3ccc(Cl)cc3)s2)cc1 [Compound 28] .
Found: 5.15

---

# experimentalSystem: UniProtKB P19440
# methodDescription: L-GpNA Transpeptidation Assay with GlyGly as acceptor
# Assay type: biochemical
# Design: lacking the transmembrane domain; made in house; host or cells: Pichia pastoris
# testSettings: Table 4; read-out: L-GpNA with GlyGly Kii
# Method: Transpeptidation Reaction: The same assay buffer was used for both the hydrolysis reaction and the transpeptidation reaction. The transpeptidation reaction included 40 mM glycylglycine (glygly, Sigma, St. Louis, Mo.) as the acceptor. […] The concentration of L-GpNA was 3 mM for experiments in which the concentration of glygly was varied. To initiate the transpeptidation reaction, 4 mU GGT were added. 1. […] 3 and 4. […] 5 (25). L-GpNA Transpeptidation Assay: The assay has been described previously. […]
metric: pKi
Give only the number. pKi is defined as minus log10 of concentration in molar units.

[[record]]
compound = "COc1ccc(Cc2nnc(NS(=O)(=O)c3ccc(OC)cc3)s2)cc1 [Compound 9]"
recordedresult = 3.83


Lookup: If you can, please state the reported pKi value of COc1ccc(Cc2nnc(NS(=O)(=O)c3ccc(N)cc3)s2)cc1 [Compound 21] .
Found: 4.44
